- experimental target: HuR12 (UniProt Q15717 18-184)
- Sequence (Q15717 18-184): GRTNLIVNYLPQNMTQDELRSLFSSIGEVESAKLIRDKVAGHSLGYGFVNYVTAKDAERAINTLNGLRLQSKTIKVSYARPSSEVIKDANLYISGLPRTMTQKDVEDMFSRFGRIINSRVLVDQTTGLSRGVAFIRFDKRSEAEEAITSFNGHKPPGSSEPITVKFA
- method description: SPR
Please use true (1) for Kd under 500 nM and false (0) for everything else, ties included.

These solved cases illustrate the format of a correct answer.
{"binder": "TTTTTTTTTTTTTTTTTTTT (ssDNA) [T-rich DNA 20-mer]", "qualitative label": "false (0)"}
{"binder": "UUUUUUUUUUUUU (ssRNA) [U-rich RNA 13-mer]", "qualitative label": "true (1)"}

query: Consider the binder UUUUUUUUUUUUUUUUUUUU (ssDNA, all deoxyuridine (2'-deoxy)) [U-rich DNA 20-mer] . Is its Kd strictly less than 500 nM?
result: false (0)

query: Consider the binder UUUUUUUUUUUUUUUUU (ssRNA) [U-rich RNA 17-mer] . Is its Kd strictly less than 500 nM?
result: true (1)

query: Consider the binder UUUUUUUU (ssRNA) [U-rich RNA 8-mer] . Is its Kd strictly less than 500 nM?
result: false (0)
